Below is a list of entries, each paired with its recorded conversion of 0708-30 by PAD4, 10 µM inhibitor value.
# assayed-target: recombinant human PAD4 (human, UniProt Q9UM07 1-663)
# Sequence (Q9UM07 whole entry): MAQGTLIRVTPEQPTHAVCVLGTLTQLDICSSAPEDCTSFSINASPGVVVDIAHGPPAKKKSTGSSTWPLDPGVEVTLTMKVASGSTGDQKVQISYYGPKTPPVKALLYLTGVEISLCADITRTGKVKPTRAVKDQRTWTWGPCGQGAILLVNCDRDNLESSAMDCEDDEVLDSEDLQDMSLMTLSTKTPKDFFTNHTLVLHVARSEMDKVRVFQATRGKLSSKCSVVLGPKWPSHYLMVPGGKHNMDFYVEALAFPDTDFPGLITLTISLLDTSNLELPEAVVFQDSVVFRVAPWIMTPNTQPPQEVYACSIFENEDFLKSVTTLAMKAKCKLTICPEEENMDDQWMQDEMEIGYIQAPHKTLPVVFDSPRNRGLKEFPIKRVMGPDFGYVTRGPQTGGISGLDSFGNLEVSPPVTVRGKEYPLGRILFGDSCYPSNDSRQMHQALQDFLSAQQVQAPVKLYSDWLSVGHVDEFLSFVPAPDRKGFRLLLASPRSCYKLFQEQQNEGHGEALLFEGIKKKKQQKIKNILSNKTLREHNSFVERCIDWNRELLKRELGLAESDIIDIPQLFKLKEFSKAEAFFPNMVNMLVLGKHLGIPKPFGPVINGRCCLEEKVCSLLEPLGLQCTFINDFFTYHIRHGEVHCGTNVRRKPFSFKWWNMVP
# experiment: cell-based or functional assay
Numbered stars: 1 amine (or outer) side, 2 acyl side, 3 side chain; on linkers, the order of the positions; unused ones are H or OH. Square brackets hold non-standard residues; d marks the D form. Orn(CA) = ornithine chloroamidine, O(CA), N=C(CCl)NCCC[C@H](N[*:1])C(=O)[*:2]; Orn(fluoroacetimidoyl) = N=C(CF)NCCC[C@H](N)C(=O)O
Answer as a quantity: numeral, then unit.

Look over these answered cases.
| binder | reading |
| --- | --- |
| Ac-DSKKHD[Orn(CA)]DFLYSD-NH2 (SMILES CC(=O)N[C@@H](CC(=O)O)C(=O)N[C@@H](CO)C(=O)N[C@@H](CCCCN)C(=O)N[C@@H](CCCCN)C(=O)N[C@@H](Cc1c[nH]cn1)C(=O)N[C@@H](CC(=O)O)C(=O)N[C@@H](CCCNC(=N)CCl)C(=O)N[C@@H](CC(=O)O)C(=O)N[C@@H](Cc1ccccc1)C(=O)N[C@@H](CC(C)C)C(=O)N[C@@H](Cc1ccc(O)cc1)C(=O)N[C@@H](CO)C(=O)N[C@@H](CC(=O)O)C(N)=O) [0741-06CA] | 74% |
| Ac-DSHKFD[Orn(CA)]DFIYSD-NH2 (SMILES CC[C@H](C)[C@H](NC(=O)[C@H](Cc1ccccc1)NC(=O)[C@H](CC(=O)O)NC(=O)[C@H](CCCNC(=N)CCl)NC(=O)[C@H](CC(=O)O)NC(=O)[C@H](Cc1ccccc1)NC(=O)[C@H](CCCCN)NC(=O)[C@H](Cc1c[nH]cn1)NC(=O)[C@H](CO)NC(=O)[C@H](CC(=O)O)NC(C)=O)C(=O)N[C@@H](Cc1ccc(O)cc1)C(=O)N[C@@H](CO)C(=O)N[C@@H](CC(=O)O)C(N)=O) [0741-05CA] | 74% |
| Ac-FFDSKHFD[Orn(CA)]EWIWSD-NH2 (SMILES CC[C@H](C)[C@H](NC(=O)[C@H](Cc1c[nH]c2ccccc12)NC(=O)[C@H](CCC(=O)O)NC(=O)[C@H](CCCNC(=N)CCl)NC(=O)[C@H](CC(=O)O)NC(=O)[C@H](Cc1ccccc1)NC(=O)[C@H](Cc1c[nH]cn1)NC(=O)[C@H](CCCCN)NC(=O)[C@H](CO)NC(=O)[C@H](CC(=O)O)NC(=O)[C@H](Cc1ccccc1)NC(=O)[C@H](Cc1ccccc1)NC(C)=O)C(=O)N[C@@H](Cc1c[nH]c2ccccc12)C(=O)N[C@@H](CO)C(=O)N[C@@H](CC(=O)O)C(N)=O) [0741-01CA] | 63% |
| Ac-DSKKHD[Orn(fluoroacetimidoyl)]DFLYSD-NH2 (SMILES CC(=O)N[C@@H](CC(=O)O)C(=O)N[C@@H](CO)C(=O)N[C@@H](CCCCN)C(=O)N[C@@H](CCCCN)C(=O)N[C@@H](Cc1c[nH]cn1)C(=O)N[C@@H](CC(=O)O)C(=O)N[C@@H](CCCNC(=N)CF)C(=O)N[C@@H](CC(=O)O)C(=O)N[C@@H](Cc1ccccc1)C(=O)N[C@@H](CC(C)C)C(=O)N[C@@H](Cc1ccc(O)cc1)C(=O)N[C@@H](CO)C(=O)N[C@@H](CC(=O)O)C(N)=O) [0741-06FA] | 74% |

Then there is this binder:
## Input Form field: reported conversion of 0708-30 by PAD4, 10 µM inhibitor of Ac-FFDSHKLH[Orn(CA)]EWMWSD-NH2 (SMILES CSCC[C@H](NC(=O)[C@H](Cc1c[nH]c2ccccc12)NC(=O)[C@H](CCC(=O)O)NC(=O)[C@H](CCCNC(=N)CCl)NC(=O)[C@H](Cc1c[nH]cn1)NC(=O)[C@H](CC(C)C)NC(=O)[C@H](CCCCN)NC(=O)[C@H](Cc1c[nH]cn1)NC(=O)[C@H](CO)NC(=O)[C@H](CC(=O)O)NC(=O)[C@H](Cc1ccccc1)NC(=O)[C@H](Cc1ccccc1)NC(C)=O)C(=O)N[C@@H](Cc1c[nH]c2ccccc12)C(=O)N[C@@H](CO)C(=O)N[C@@H](CC(=O)O)C(N)=O) [0741-04CA]
## Output 68%

Reference source: patent US20110142868A1
